B1: TPR t1 (parent)
chain: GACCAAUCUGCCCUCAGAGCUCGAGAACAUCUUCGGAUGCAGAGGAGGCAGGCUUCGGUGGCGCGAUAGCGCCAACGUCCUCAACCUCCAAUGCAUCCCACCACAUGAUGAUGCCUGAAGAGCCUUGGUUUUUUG

# Variants of: B1
# test-protocol: polymerase ribozyme fitness, log enrichment relative to wild type (log ratio); higher = more active; in vitro selection for triplet polymerase activity
Kind request: treat -2 as inclusive, so polymerase ribozyme fitness (log ratio) at -2 or higher is y, anything lower is n.

Please review the following examples before continuing.
residue-change: G48A C114A
class: n
//
residue-change: G58A C76U
class: y
//
residue-change: A84U G110U
class: y

Query block: Is polymerase ribozyme fitness (log ratio) at least -2? Consider C11G G69A C70A
Result block: n

Query block: Is polymerase ribozyme fitness (log ratio) at least -2? Consider U96G C98U
Result block: n

Query block: Is polymerase ribozyme fitness (log ratio) at least -2? Consider C49G U55G U129A
Result block: y

Query block: Is polymerase ribozyme fitness (log ratio) at least -2? Consider A29G A37G A84G G110U A121G
Result block: n

Query block: Is polymerase ribozyme fitness (log ratio) at least -2? Consider C8U C53U C73U A105C U125G
Result block: y

Query block: Is polymerase ribozyme fitness (log ratio) at least -2? Consider G71A A74C A105C
Result block: n

Query block: Is polymerase ribozyme fitness (log ratio) at least -2? Consider C20G G60A
Result block: n
